Can you tell me pIC50 for the items I'm about to list?
# tgt: HLA-A*0201 (human)
# experiment: competition with 125I probe peptide on purified HLA, gel filtration
# experimental conditions: remark: other sources report otherwise
In plain terms, pIC50 is the concentration in mol/L turned into minus its base-10 logarithm.

Quick check: pIC50 of GVSIWNPIV [Peptide 60.0207 … (PAP.128.V9)] ?
6.34

// query: ALDVYNGLL [Peptide 1177.02 … (PAP.299)]
7.14

// query: ALFPPEGVSI [Peptide 1419.6 … (PAP.122)]
6.56

// query: KLRELSELSV [Peptide 63.0048 … (PAP.234.V10)]
6.58

// query: GVSIWNPILV [Peptide 63.0041 … (PAP.128.V10)]
6.60

// query: PLLLWQPIPV [Peptide 63.0042 … (PAP.134.L2)]
6.62
